Origin of the recorded values: paper PMC10726451

# assay details: Solubility in PBS pH 7.4, miniaturised shake flask
# Format: physicochemical
# experimental context: 25 °C, pH 7.4, aqueous buffer, kinetic from dmso stock
# Procedure: Solubility in phosphate buffered saline (PBS) pH7.4 The solubility assay was performed using a miniaturised shake flask method. A solution of phosphate buffered saline (PBS) and the test compound (200 µM) was incubated at 25 °C with constant shaking (600 rpm) for 2 hours. The samples were filtered using a multiscreen solubility filter plate. […] Blank, linearity and test samples (n = 2) were transferred to a UV readable plate and the plate was scanned for absorbance. […]
readout type: solubility kinetic at 2 h

[[record]]
molecule = "CN1CCN(CCCCNC2CC3CCC(C2)N3Cc2ccccc2)CC1 (stereo not shown)"
value_measured = "≥ 200 µM"


* * *

# assay details: in vitro
# Assay type: cell-based
# experimental context: human
# Experimental: Here, this state of the art screening platform was applied to CQL (Figure 3). During solubilization and reformatting activities, 40 samples were identified with solubility issues and removed from the screening set, thereby leaving 5810 compounds (4623 scored + 1187 randomly selected). A primary screen was conducted at a single concentration (2 μM) against P. falciparum NF54 (nanoGlo readout over 72 h incubation). […]
Examples of molecules with documented IC50 at 72 h follow.
readout type: IC50 at 72 h (µM)

[[record]]
molecule = "Cc1cnccc1N1CCCN(Cc2ccccc2OCCN2CCN(C)CC2)CC1"
units_of_measure = "µM"
inequality_operator = "="
value_measured = 20

[[record]]
molecule = "CN1CCN(CCCCNC2CC3CCC(C2)N3Cc2ccccc2)CC1 (centres unmarked)"
units_of_measure = "µM"
inequality_operator = "="
value_measured = 13.8

[[record]]
molecule = "c1ccc(-c2ccnc(C3CCN(CC45CNCC4C5)CC3)n2)cc1 (centres unmarked)"
units_of_measure = "µM"
inequality_operator = "="
value_measured = 22.1

[[record]]
molecule = "COc1ccc(-c2cncc(C(=O)NCC3CCN(CCN(C)C)CC3)c2)cc1"
units_of_measure = "µM"
inequality_operator = ">"
value_measured = 25

[[record]]
molecule = "CN1CCC(Oc2ccc(NC(=O)c3cn4ccnc4s3)cn2)CC1"
units_of_measure = "µM"
inequality_operator = "="
value_measured = 21.6

[[record]]
molecule = "O=C(NC1CCN(CCOc2ccc(Cl)cc2)CC1)c1c[nH]c2ccncc2c1=O"
units_of_measure = "µM"
inequality_operator = ">"
value_measured = 25

[[record]]
molecule = "Cc1c(CN2CCC(O)(Cn3ccnc3)CC2)[nH]c2c(Cl)cccc12"
units_of_measure = "µM"
inequality_operator = ">"
value_measured = 25

[[record]]
molecule = "CC1(N2CCC2)CCC(NCC2CCN(Cc3ccccc3)C2)CC1 (centres unmarked)"
units_of_measure = "µM"
inequality_operator = "="
value_measured = 19.1


* * *

Examples of compounds with documented IC50 follow.
# System: P. falciparum 3D7
# assay details: P. falciparum 3D7 parasite growth, pLDH readout, 72 h incubation
# Type: cell-based
# experimental context: Plasmodium falciparum, P. falciparum 3D7, pLDH readout, read-out: 3D7 LDH (72 h) IC50
readout type: IC50 (nM)

[[record]]
compound = "CN1CCN(CCCCNC2CC3CCC(C2)N3Cc2ccccc2)CC1 (centres unmarked) [MMV1797951]"
study_target = "P. falciparum 3D7"
readout_type = "IC50"
units_of_measure = "nM"
value_measured = 1000

[[record]]
compound = "COc1ccc(-c2cncc(C(=O)NCC3CCN(CCN(C)C)CC3)c2)cc1 [MMV1799348]"
study_target = "P. falciparum 3D7"
readout_type = "IC50"
units_of_measure = "nM"
value_measured = 1100

[[record]]
compound = "CN1CCC(Oc2ccc(NC(=O)c3cn4ccnc4s3)cn2)CC1 [MMV1797331]"
study_target = "P. falciparum 3D7"
readout_type = "IC50"
units_of_measure = "nM"
value_measured = 1900

[[record]]
compound = "O=C(NC1CCN(CCOc2ccc(Cl)cc2)CC1)c1c[nH]c2ccncc2c1=O [MMV1798946]"
study_target = "P. falciparum 3D7"
readout_type = "IC50"
units_of_measure = "nM"
value_measured = 750

[[record]]
compound = "Cc1cnccc1N1CCCN(Cc2ccccc2OCCN2CCN(C)CC2)CC1 [MMV1802771]"
study_target = "P. falciparum 3D7"
readout_type = "IC50"
units_of_measure = "nM"
value_measured = 810

[[record]]
compound = "Cc1c(CN2CCC(O)(Cn3ccnc3)CC2)[nH]c2c(Cl)cccc12 [MMV1801316]"
study_target = "P. falciparum 3D7"
readout_type = "IC50"
units_of_measure = "nM"
value_measured = 1500

[[record]]
compound = "c1ccc(-c2ccnc(C3CCN(CC45CNCC4C5)CC3)n2)cc1 (centres unmarked) [MMV1797658]"
study_target = "P. falciparum 3D7"
readout_type = "IC50"
units_of_measure = "nM"
value_measured = 780

[[record]]
compound = "CC1(N2CCC2)CCC(NCC2CCN(Cc3ccccc3)C2)CC1 (centres unmarked) [MMV1798925]"
study_target = "P. falciparum 3D7"
readout_type = "IC50"
units_of_measure = "nM"
value_measured = 1100


* * *

# Test system: P. falciparum Dd2
# assay details: P. falciparum Dd2 parasite growth, pLDH readout, 72 h incubation
# Format: cell-based
# experimental context: Plasmodium falciparum; P. falciparum Dd2 (drug-resistant), pLDH readout, 72 h; read-out: Dd2 LDH (72 h) IC50
readout type: IC50

[[record]]
compound = "CN1CCN(CCCCNC2CC3CCC(C2)N3Cc2ccccc2)CC1 (stereo not shown) [MMV1797951]"
value_measured = "980 nM"


* * *

# Test system: P. falciparum Dd2
# assay details: P. falciparum Dd2 parasite growth, pLDH readout, 72 h incubation
# Type: cell-based
# experimental context: Plasmodium falciparum, DD2, 72 h, read-out: Dd2 LDH (72 h) IC50
readout type: IC50

[[record]]
molecule = "c1ccc(-c2ccnc(C3CCN(CC45CNCC4C5)CC3)n2)cc1 (stereo not shown) [MMV1797658]"
study_target = "P. falciparum Dd2"
value_measured = "1.5 µM"

[[record]]
molecule = "CN1CCC(Oc2ccc(NC(=O)c3cn4ccnc4s3)cn2)CC1 [MMV1797331]"
study_target = "P. falciparum Dd2"
value_measured = "2 µM"

[[record]]
molecule = "Cc1cnccc1N1CCCN(Cc2ccccc2OCCN2CCN(C)CC2)CC1 [MMV1802771]"
study_target = "P. falciparum Dd2"
value_measured = "1.1 µM"

[[record]]
molecule = "Cc1c(CN2CCC(O)(Cn3ccnc3)CC2)[nH]c2c(Cl)cccc12 [MMV1801316]"
study_target = "P. falciparum Dd2"
value_measured = "3.6 µM"

[[record]]
molecule = "CC1(N2CCC2)CCC(NCC2CCN(Cc3ccccc3)C2)CC1 (stereo not shown) [MMV1798925]"
study_target = "P. falciparum Dd2"
value_measured = "1.5 µM"

[[record]]
molecule = "O=C(NC1CCN(CCOc2ccc(Cl)cc2)CC1)c1c[nH]c2ccncc2c1=O [MMV1798946]"
study_target = "P. falciparum Dd2"
value_measured = "2 µM"

[[record]]
molecule = "COc1ccc(-c2cncc(C(=O)NCC3CCN(CCN(C)C)CC3)c2)cc1 [MMV1799348]"
study_target = "P. falciparum Dd2"
value_measured = "2.7 µM"


* * *

# assay details: Metabolic stability in cryopreserved rat hepatocytes
# Assay type: in vitro ADME
# experimental context: pooled cryopreserved rat hepatocytes; 1 µM compound, pooled rat hepatocytes 1×10^6 cells/mL; read-out: rat hepatocytes CLint
Label t when hepatocyte CLint at 1.5 h, 1 µM is at or above 2 µL/min/1e6 cells; otherwise label f.

[[record]]
molecule = "CC1(N2CCC2)CCC(NCC2CCN(Cc3ccccc3)C2)CC1 (stereo not shown)"
group = "t"

[[record]]
molecule = "Cc1c(CN2CCC(O)(Cn3ccnc3)CC2)[nH]c2c(Cl)cccc12"
group = "t"

[[record]]
molecule = "Cc1cnccc1N1CCCN(Cc2ccccc2OCCN2CCN(C)CC2)CC1"
group = "t"

[[record]]
molecule = "CN1CCC(Oc2ccc(NC(=O)c3cn4ccnc4s3)cn2)CC1"
group = "f"

[[record]]
molecule = "c1ccc(-c2ccnc(C3CCN(CC45CNCC4C5)CC3)n2)cc1 (stereo not shown)"
group = "t"

[[record]]
molecule = "COc1ccc(-c2cncc(C(=O)NCC3CCN(CCN(C)C)CC3)c2)cc1"
group = "f"


* * *

Examples of compounds with documented microsomal CLint at 1 h, 1 µM follow.
# assay details: Metabolic stability in human liver microsomes
# Type: in vitro ADME
# experimental context: 1 µM compound, 0.5 mg/mL pooled human liver microsomes
readout type: microsomal CLint at 1 h, 1 µM

[[record]]
compound = "c1ccc(-c2ccnc(C3CCN(CC45CNCC4C5)CC3)n2)cc1 (centres unmarked)"
value_measured = "3.5 µL/min/mg"

[[record]]
compound = "O=C(NC1CCN(CCOc2ccc(Cl)cc2)CC1)c1c[nH]c2ccncc2c1=O"
value_measured = "14 µL/min/mg"

[[record]]
compound = "COc1ccc(-c2cncc(C(=O)NCC3CCN(CCN(C)C)CC3)c2)cc1"
value_measured = "3.5 µL/min/mg"

[[record]]
compound = "Cc1cnccc1N1CCCN(Cc2ccccc2OCCN2CCN(C)CC2)CC1"
value_measured = "11 µL/min/mg"

[[record]]
compound = "CN1CCN(CCCCNC2CC3CCC(C2)N3Cc2ccccc2)CC1 (centres unmarked)"
value_measured = "8.3 µL/min/mg"

